Documented melting point across a set of compounds
Square brackets hold non-standard residues; d marks the D form. Peptide text beside a SMILES is read from it. * marks the point of attachment. Dip = N[C@H](C(=O)O)C(c1ccccc1)c1ccccc1; Tos = Cc1ccc(S(=O)(=O)*)cc1; OBn = c1ccc(CO*)cc1; Sar = CNCC(=O)O

Cc1ccc(S(=O)(=O)N[C@@H](C)C(=O)N[C@@H](Cc2ccccc2)C(=O)OCc2ccccc2)cc1 [Example 20] | 109 to 110 °C
Cc1ccc(S(=O)(=O)NC(C(=O)N[C@@H](Cc2ccccc2)C(=O)O)c2ccccc2)cc1 (mixture of isomers) [Example 9] | 150 to 152 °C
Cc1ccc(S(=O)(=O)N(C)CC(=O)N[C@@H](Cc2ccccc2)C(=O)OCc2ccccc2)cc1 [Example 21] (Tos-[Sar]-Phe-OBn) | 80 to 82 °C
Cc1ccc(S(=O)(=O)N[C@@H](C)C(=O)N[C@@H](Cc2ccccc2)C(=O)O)cc1 [Example 5] | 105 to 108 °C
CCOC(=O)[C@H](Cc1ccccc1)NC(=O)C(NS(=O)(=O)c1ccc(C)cc1)c1ccccc1 (mixture of isomers) [Example 22] | 145 to 147 °C

Ask: Returns the measured melting point for the input compound. Input: COC(=O)c1ccccc1S(=O)(=O)NCC(=O)N[C@@H](Cc1ccccc1)C(=O)O [Example 6]
Result: 140 to 143 °C

Ask: Let us now turn to Cc1ccc(S(=O)(=O)N[C@H](C(=O)N[C@@H](Cc2ccccc2)C(=O)OCc2ccccc2)C(c2ccccc2)c2ccccc2)cc1 [Example 25] (Tos-[Dip]-Phe-OBn)
Result: 79 to 84 °C

Ask: Let us now turn to Cc1ccc(S(=O)(=O)N(C)C(C(=O)N[C@@H](Cc2ccccc2)C(=O)OCc2ccccc2)c2ccccc2)cc1 (mixture of isomers) [Example 30]
Result: 46 to 49 °C

Ask: Let us now turn to Cc1ccc(S(=O)(=O)NC(C(=O)N[C@@H](Cc2ccccc2)C(=O)OCc2ccccc2)c2ccccc2)cc1 (mixture of isomers) [Example 29]
Result: 148 to 150 °C

Ask: Let us now turn to Cc1ccc(S(=O)(=O)N(C)CC(=O)N[C@@H](Cc2ccccc2)C(=O)O)cc1 [Example 4] (Tos-[Sar]-Phe-OH)
Result: 128 to 130 °C

Ask: Let us now turn to Cc1ccc(S(=O)(=O)NCC(=O)N[C@@H](Cc2ccccc2)C(=O)O)cc1 [Example 3] (Tos-Gly-Phe-OH)
Result: 157 to 161 °C
